The reported measurements were obtained from paper PMC4336329.

Target: human ether-à-go-go-related gene (hERG) potassium channel (human, UniProt Q12809);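 also: peak tail current of the secondary pulse compared with the same well before compound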
Sequence (Q12809 whole entry, looked up): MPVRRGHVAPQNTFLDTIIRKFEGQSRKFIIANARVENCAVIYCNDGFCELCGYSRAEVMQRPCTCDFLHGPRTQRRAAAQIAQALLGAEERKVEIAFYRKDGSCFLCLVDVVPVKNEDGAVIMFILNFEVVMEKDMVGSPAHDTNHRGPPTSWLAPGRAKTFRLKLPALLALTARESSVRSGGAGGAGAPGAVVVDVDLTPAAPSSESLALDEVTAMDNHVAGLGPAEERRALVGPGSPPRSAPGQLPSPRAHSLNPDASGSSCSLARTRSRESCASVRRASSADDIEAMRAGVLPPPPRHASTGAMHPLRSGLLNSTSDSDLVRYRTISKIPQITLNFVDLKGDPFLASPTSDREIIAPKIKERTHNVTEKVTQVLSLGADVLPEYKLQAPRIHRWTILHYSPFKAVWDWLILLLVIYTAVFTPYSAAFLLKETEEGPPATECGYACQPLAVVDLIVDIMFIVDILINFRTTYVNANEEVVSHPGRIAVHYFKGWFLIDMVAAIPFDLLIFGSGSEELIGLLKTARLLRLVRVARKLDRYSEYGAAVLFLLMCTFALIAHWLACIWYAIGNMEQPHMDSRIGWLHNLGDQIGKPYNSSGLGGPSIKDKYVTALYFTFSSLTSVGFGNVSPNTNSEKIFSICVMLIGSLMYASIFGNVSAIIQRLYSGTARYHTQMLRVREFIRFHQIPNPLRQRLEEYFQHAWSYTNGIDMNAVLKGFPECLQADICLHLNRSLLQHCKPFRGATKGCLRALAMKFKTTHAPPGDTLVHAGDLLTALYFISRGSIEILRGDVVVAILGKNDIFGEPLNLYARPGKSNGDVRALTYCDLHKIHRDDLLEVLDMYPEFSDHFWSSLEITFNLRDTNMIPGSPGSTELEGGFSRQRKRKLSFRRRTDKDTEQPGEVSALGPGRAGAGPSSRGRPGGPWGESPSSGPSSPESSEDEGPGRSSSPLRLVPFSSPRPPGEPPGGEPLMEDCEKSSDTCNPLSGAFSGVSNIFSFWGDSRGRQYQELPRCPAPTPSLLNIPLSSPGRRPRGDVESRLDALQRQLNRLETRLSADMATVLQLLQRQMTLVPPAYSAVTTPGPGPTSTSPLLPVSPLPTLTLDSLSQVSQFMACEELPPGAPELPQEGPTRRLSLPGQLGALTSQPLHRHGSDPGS
Assay: primary screen, population patch clamp on CHO cells stably expressing hERG; higher = less effect of the substance
The campaign covered roughly 310,000 compounds. About 14,000 (4.5%) showed an effect of 50% or more. Effects have a minus sign here. This is one part of a sample in which strong results are shown more often than they occur.
metric-name: hERG current change (%, negative = inhibition) at 10uM (%)
Dear colleague, please return just the value in %, with no unit written.

{"compound": "CCNc1c(NCC)c(=O)c1=O", "measurement-unit": "%", "recorded-value": 15.2}
{"compound": "COc1cc2c(cc1OC)C(C(=O)N1CCN(c3ccccn3)CC1)C(c1cccs1)N(C)C2=O (stereo not shown)", "measurement-unit": "%", "recorded-value": -38}
{"compound": "Cl.c1ccc2c(N3CCNCC3)nsc2c1", "measurement-unit": "%", "recorded-value": -5.8}
{"compound": "Cl.O=C1[C@H]2CCCC[C@H]2C(=O)N1CCCCN1CCN(c2nsc3ccccc23)CC1", "measurement-unit": "%", "recorded-value": -74.3}
{"compound": "COc1ccc(NC(=O)OCCN2CCN(Cc3ccccc3)CCC2=O)cc1", "measurement-unit": "%", "recorded-value": -9.25}
{"compound": "O=C(Nc1nc2ccc(Cl)cc2s1)c1ccc(Br)o1", "measurement-unit": "%", "recorded-value": 4.25}
{"compound": "CCc1nnc(NC(=O)CSc2ccc(-c3nc4ccccc4[nH]3)cn2)s1", "measurement-unit": "%", "recorded-value": 5.82}
{"compound": "CCC(=O)N1CCN(c2ccccc2NC(=O)COc2cccc(C)c2)CC1", "measurement-unit": "%", "recorded-value": -38.2}
{"compound": "CC1c2cccn2CCN1S(=O)(=O)c1ccc(F)cc1 (stereo not shown)", "measurement-unit": "%", "recorded-value": -52.3}

For the next question, use this compound.
Name the recorded hERG current change (%, negative = inhibition) at 10uM for S=C(NCC1CCCO1)Nc1ccccc1 (stereo not shown) .
25.5

====

hERG current change (%, negative = inhibition) at 10uM values for the molecules below.
Biological target: human ether-à-go-go-related gene (hERG) potassium channel (human, UniProt Q12809);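 also: peak tail current of the secondary pulse compared with the same well before compound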
Assay: primary screen, population patch clamp on CHO cells stably expressing hERG; higher = less effect of the substance
Out of some 310,000 compounds screened, about 14,000 (4.5%) showed an effect of 50% or more. The effect is printed as a negative number. The sample holds strong results, similar compounds and a random draw of the others, so the mix is not that of the screen.
# unit: % | format: bare number

Check out these entries, answers already filled in.
{"molecule": "COCc1c(C(=O)N2CCN(CCOc3ccccc3)CC2)oc2ccccc12", "subject-of-test": "human ether-à-go-go-related gene (hERG) potassium channel (human, UniProt Q12809)", "recorded-value": -63.5}
{"molecule": "CCc1nn2c(=O)cc(COC(=O)c3cc(Cl)c(OC)c(OC)c3)nc2s1", "subject-of-test": "human ether-à-go-go-related gene (hERG) potassium channel (human, UniProt Q12809)", "recorded-value": -69.5}
{"molecule": "COCc1c(C(=O)N2CCN(Cc3ccc4c(c3)OCO4)CC2)oc2ccccc12", "subject-of-test": "human ether-à-go-go-related gene (hERG) potassium channel (human, UniProt Q12809)", "recorded-value": -40.8}
{"molecule": "Cc1cccn2c(=O)c3cc(C(=O)NCCc4ccccc4)c(=N)n(Cc4ccco4)c3nc12", "subject-of-test": "human ether-à-go-go-related gene (hERG) potassium channel (human, UniProt Q12809)", "recorded-value": -74}
{"molecule": "Cc1oc(CC(C)C)cc1C(=O)NCCCC(=O)O", "subject-of-test": "human ether-à-go-go-related gene (hERG) potassium channel (human, UniProt Q12809)", "recorded-value": 13.6}

Look up hERG current change (%, negative = inhibition) at 10uM: Cc1ccccc1Cn1c(C(C)O)nc2ccccc21 (stereo not shown)
4.7

Look up hERG current change (%, negative = inhibition) at 10uM for this molecule: CCC1=Nc2cc(C(=O)NCc3ccco3)ccc2Sc2ccc(C)cc21
-0.612

Need hERG current change (%, negative = inhibition) at 10uM, item Cc1ccccc1Cn1c(=O)n(Cc2ccco2)c(=O)c2ccccc21
2.24

Record request: hERG current change (%, negative = inhibition) at 10uM value, item CCOC(=O)c1c(C)[nH]c(C(=O)COC(=O)CNS(=O)(=O)c2ccc(C)cc2)c1C
11.8

What measured hERG current change (%, negative = inhibition) at 10uM goes with Cc1ccccc1Cn1c(=N)n(CC(O)c2ccco2)c2ccccc21.Cl (stereo not shown) ?
-59.8
